Measured values drawn from PubChem BioAssay AID1347416 for this set.

Test: qHTS Validation assay for Inhibitors of Plasmodium falciparum Dd2 growth in vitro; further: nearly all actives have a fitted effect of over 70% in size; further: potency means the concentration at half of the fitted maximal effect
Conditions: P. falciparum Dd2 in RBCs, SYBR Green growth, 72 h; series mostly up to 28.7 µM
In all, about 4,100 compounds went through this assay and about 1,600 (39%) were called active. Not shown: some 25% with an inconclusive outcome. The list shows a part of the results.
reported_endpoint: Potency

Worked examples, 5 compounds total:
Q: Entry COc1ccc(C(=O)N[C@@H]2CN(Cc3cccc(OC)c3)CCC[C@H]2O)cc1 : reported Potency = ?
A: 10.9 µM (active)

Q: Entry CC(C)N(Cc1nc2ccccc2[nH]1)C(C)C : reported Potency = ?
A: inactive

Q: Entry Cc1ccsc1C(=O)NCc1nnc2ccc(-c3ccc(Cl)cc3)nn12 : reported Potency = ?
A: inactive

Q: Entry Cc1cccc(N(C)c2nc3ccccc3c3nnc(C)n23)c1 : reported Potency = ?
A: 1.06 µM (active)

Q: Entry O=c1cc(-c2cccnc2)oc2c(-c3ccccc3Oc3ccccc3)nccc12 : reported Potency = ?
A: 17.2 µM (active)

Others:
Q: Entry O=c1cc(-c2ccncc2)oc2c(-c3ccccc3O)nccc12 : reported Potency = ?
A: inactive
